// data source = patent US20250320312A1

- assay target: T1, Peptide 8: Biotin-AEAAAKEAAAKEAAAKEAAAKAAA-Tyr-acid (N-terminal biotin; C-terminal acid)
- T1 construct: Control peptide without PC
- T1 peptide: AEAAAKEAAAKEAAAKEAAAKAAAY
- test protocol: scFv ELISA
assay metric: OD450 (OD450)
API: value field is a number in OD450; no unit string.

binder	OD450, OD450
PcOxP_DB03_A06 (scFv, V domains shown, scFv in periplasmic extract) VH: EVQLLESGGGLVQPGGSLRLSCAASGFTFSSYYMEWVRQAPGKGLEWVAASRSKANDYTTEYADSVKGRFTISRDNSKNTLYLQMNSLRAEDTAVYYCARDYYGSQYWYFDVWGQGTLVTVSS VL: DIVMTQSPDSLAVSLGERATINCTASESLYSNKHKVHYLAWYQQKPGQPPKLLIYGASNRYIGVPDRFSGSGSGTDFTLTISSLQAEDVAVYYCAQFYSYPLTFGGGTKVEIK	0.05
PcOxP_DB04_G08 (scFv, V domains shown, scFv in periplasmic extract) VH: EVQLLESGGGLVQPGGSLRLSCAASGFTGSDFYMEWVRQAPGKGLEWVAASRNKANDYTTEYADSVKGRFTISRDNSKNTLYLQMNSLRAEDTAVYYCARDYYGSSYWYFDVWGQGTLVTVSS VL: DIVMTQSPDSLAVSLGERATINCTASESLYSSKHKVHYLAWYQQKPGQPPKLLIYGASNRYQGVPDRFSGSGSGTDFTLTISSLQAEDVAVYYCAQFYWYPLTFGGGTKVEIK	0.05

Attention now turns to another entry.
What does the data say about its OD450? Entry: PcOxP_DB03_D10 (scFv, V domains shown, scFv in periplasmic extract) VH: EVQLLESGGGLVQPGGSLRLSCAASGFTTSDFYMEWVRQAPGKGLEWVAASRNKANGYTTEYADSVKGRFTISRDNSKNTLYLQMNSLRAEDTAVYYCARDYYGSSYWYFDVWGQGTLVTVSS VL: DIVMTQSPDSLAVSLGERATINCTASESLYSSKHKVHYLAWYQQKPGQPPKLLIYGASGRYIGVPDRFSGSGSGTDFTLTISSLQAEDVAVYYCAQFYSYPLTFGGGTKVEIK
0.06
